Biological target: FimC:FimH complex (Escherichia coli)
Construct: lectin domain (residues 1-158) is joined to a carboxy-terminal pilin domain (residues 159-279)
Sequence (P08191 22-300): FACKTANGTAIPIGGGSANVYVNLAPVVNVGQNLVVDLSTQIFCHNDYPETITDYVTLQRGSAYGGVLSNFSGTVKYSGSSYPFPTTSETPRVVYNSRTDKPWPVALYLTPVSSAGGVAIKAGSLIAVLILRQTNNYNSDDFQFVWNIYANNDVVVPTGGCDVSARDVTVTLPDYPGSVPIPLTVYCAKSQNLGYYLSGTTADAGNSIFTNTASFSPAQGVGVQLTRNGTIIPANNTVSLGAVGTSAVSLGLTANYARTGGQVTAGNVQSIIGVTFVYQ
Sequence (P31697 37-241, further chain): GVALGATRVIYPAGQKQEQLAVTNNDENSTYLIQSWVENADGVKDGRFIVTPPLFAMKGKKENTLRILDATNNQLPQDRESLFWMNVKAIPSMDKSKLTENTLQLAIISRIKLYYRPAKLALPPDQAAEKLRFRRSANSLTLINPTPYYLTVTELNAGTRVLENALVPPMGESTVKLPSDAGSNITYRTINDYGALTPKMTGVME
Experiment: Binding of alpha-D-mannose to full length FimH in FimC:FimH complex
Experimental: To eliminate the possibility of different binding strength for full length FimH and FimHtrJ96, the binding of alpha-D-mannose to FimC:FimH complex was also measured. […] To investigate the effect of sequential addition of methyl groups to the O1 oxygen of D-mannose, a series of alkyl mannosides were synthesized and the dissociation constants determined using the [^3H]-mannose displacement assay and by surface plasmon resonance (Table 1).
QUANTITY_NAME: pKd
The meaning of pKd here: minus log10 of the concentration in molar units.

What is its pKd for FimC:FimH complex (Escherichia coli)? Entry: OC[C@H]1O[C@H](O)[C@@H](O)[C@@H](O)[C@@H]1O [Mannose, α-D-mannose] 5.64

====

Target: FimHtrF18 (Escherichia coli, UniProt P08191, N91S/S99N/V48A)
Construct: coding for the lectin domain of FimH (residues 1-158) with a C-terminal 6-histidine tag; made in house; host or cells: E. coli HB101 (lacking the fim operon), periplasmic extract, plasmid pPKL316
Sequence (P08191 22-179 V48A/N91S/S99N): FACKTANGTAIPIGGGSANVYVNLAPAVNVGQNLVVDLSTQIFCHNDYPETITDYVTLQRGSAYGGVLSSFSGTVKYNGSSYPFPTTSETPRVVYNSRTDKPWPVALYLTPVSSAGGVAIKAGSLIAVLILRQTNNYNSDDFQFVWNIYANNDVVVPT
Assay: biochemical
Type: binding, E. coli fecal (F18) strain
Details: Table 3, calculated from KD
Protocol: To investigate if these variations reflect differences in sugar binding at the molecular level, the dissociation constants of a series of mannosides for the FimH lectin domain from a fecal (F18) and from a UPEC (Cl#4) strain were determined. […] Five different tri-mannosides corresponding to high-mannose substructures were synthesized, and their binding to FimHtrJ96, FimHtrF18 and FimHtrCl#4 measured using our [^3H]-mannose displacement assay (Table 3). […]
Label criterion met when ΔG° F18 is at or above -8 kcal/mol; anything below gets criterion not met.

The following molecules have reported results that may help.
MOLECULE	SYSTEM_NAME	CAT
OC[C@H]1O[C@H](O)[C@@H](O)[C@@H](O)[C@@H]1O	FimHtrF18 (Escherichia coli, UniProt P08191, N91S/S99N/V48A)	criterion met
OC[C@H]1O[C@H](OC[C@H]2O[C@H](OC[C@H]3OC(O)[C@@H](O)[C@@H](O)[C@@H]3O)[C@@H](O)[C@@H](O)[C@@H]2O)[C@@H](O)[C@@H](O)[C@@H]1O (stereo partly drawn)	FimHtrF18 (Escherichia coli, UniProt P08191, N91S/S99N/V48A)	criterion met

Then there is this molecule:
Check the entry OC[C@H]1O[C@H](O[C@@H]2[C@H](O)[C@@H](OC[C@H]3OC(O)[C@@H](O)[C@@H](O)[C@@H]3O)O[C@H](CO)[C@H]2O)[C@@H](O)[C@@H](O)[C@@H]1O (stereo partly drawn) : does ΔG° F18 equal or exceed -8 kcal/mol? criterion not met

====

Target: FimHtrF18 (Escherichia coli, UniProt P08191, N91S/S99N/V48A)
Construct: coding for the lectin domain of FimH (residues 1-158) with a C-terminal 6-histidine tag; made in house; host or cells: E. coli HB101 (lacking the fim operon), periplasmic extract, plasmid pPKL316
Experiment: biochemical
Assay type: binding, E. coli fecal (F18) strain
Details: KD F18, Table 3, [3H]-mannose displacement assay (mannose measured directly)
Method: To investigate if these variations reflect differences in sugar binding at the molecular level, the dissociation constants of a series of mannosides for the FimH lectin domain from a fecal (F18) and from a UPEC (Cl#4) strain were determined. […] Five different tri-mannosides corresponding to high-mannose substructures were synthesized, and their binding to FimHtrJ96, FimHtrF18 and FimHtrCl#4 measured using our [^3H]-mannose displacement assay (Table 3). […]
QUANTITY_NAME: Kd
Include the unit right after the number.

FimHtrF18 (Escherichia coli, UniProt P08191, N91S/S99N/V48A) / Kd / OC[C@H]1O[C@H](O)[C@@H](O)[C@@H](O)[C@@H]1O : value? 9.8 µM

====

molecular target: FimHtrF18 (Escherichia coli, UniProt P08191, N91S/S99N/V48A); construct: coding for the lectin domain of FimH (residues 1-158) with a C-terminal 6-histidine tag; made in house; host or cells: E. coli HB101 (lacking the fim operon), periplasmic extract, plasmid pPKL316; assay: biochemical; assay type: binding, E. coli fecal (F18) strain; settings: KD; mannose binding measured directly, FimHtrF18
QUANTITY_NAME: pKd
// pKd here means minus log10 of the molar concentration (mol/L)

Can you look up the measured pKd of OC[C@H]1O[C@H](O)[C@@H](O)[C@@H](O)[C@@H]1O for me? 5.00

====

Target: FimHtrF18 (Escherichia coli, UniProt P08191, N91S/S99N/V48A)
Construct: coding for the lectin domain of FimH (residues 1-158) with a C-terminal 6-histidine tag; made in house; host or cells: E. coli HB101 (lacking the fim operon), periplasmic extract, plasmid pPKL316
Assay: biochemical
Type: binding, E. coli fecal (F18) strain
Settings: Table 3, calculated from KD
Experimental: To investigate if these variations reflect differences in sugar binding at the molecular level, the dissociation constants of a series of mannosides for the FimH lectin domain from a fecal (F18) and from a UPEC (Cl#4) strain were determined. […] Five different tri-mannosides corresponding to high-mannose substructures were synthesized, and their binding to FimHtrJ96, FimHtrF18 and FimHtrCl#4 measured using our [^3H]-mannose displacement assay (Table 3). […]
QUANTITY_NAME: ΔG° F18
Please report the result as a number followed by the unit.

MOLECULE	ΔG° F18
OC[C@H]1O[C@H](O[C@@H]2[C@@H](O[C@H]3[C@H](O)[C@@H](CO)OC(O)[C@H]3O)O[C@H](CO)[C@@H](O)[C@@H]2O)[C@@H](O)[C@@H](O)[C@@H]1O (stereo partly drawn)	-7.8 kcal/mol
OC[C@H]1O[C@H](O[C@@H]2[C@@H](OC[C@H]3OC(O)[C@@H](O)[C@@H](O)[C@@H]3O)O[C@H](CO)[C@@H](O)[C@@H]2O)[C@@H](O)[C@@H](O)[C@@H]1O (stereo partly drawn)	-8.1 kcal/mol

Now examine the next entry.
What value of ΔG° F18 has been reported for the following molecule? OC[C@H]1O[C@H](O[C@@H]2[C@@H](O[C@@H]3C(O)O[C@H](CO)[C@@H](O)[C@@H]3O)O[C@H](CO)[C@@H](O)[C@@H]2O)[C@@H](O)[C@@H](O)[C@@H]1O (stereo partly drawn) -7.8 kcal/mol
